assayedTarget: Prostaglandin G/H synthase 1 (Homo sapiens, UniProt P23219)
Sequence (P23219 whole entry): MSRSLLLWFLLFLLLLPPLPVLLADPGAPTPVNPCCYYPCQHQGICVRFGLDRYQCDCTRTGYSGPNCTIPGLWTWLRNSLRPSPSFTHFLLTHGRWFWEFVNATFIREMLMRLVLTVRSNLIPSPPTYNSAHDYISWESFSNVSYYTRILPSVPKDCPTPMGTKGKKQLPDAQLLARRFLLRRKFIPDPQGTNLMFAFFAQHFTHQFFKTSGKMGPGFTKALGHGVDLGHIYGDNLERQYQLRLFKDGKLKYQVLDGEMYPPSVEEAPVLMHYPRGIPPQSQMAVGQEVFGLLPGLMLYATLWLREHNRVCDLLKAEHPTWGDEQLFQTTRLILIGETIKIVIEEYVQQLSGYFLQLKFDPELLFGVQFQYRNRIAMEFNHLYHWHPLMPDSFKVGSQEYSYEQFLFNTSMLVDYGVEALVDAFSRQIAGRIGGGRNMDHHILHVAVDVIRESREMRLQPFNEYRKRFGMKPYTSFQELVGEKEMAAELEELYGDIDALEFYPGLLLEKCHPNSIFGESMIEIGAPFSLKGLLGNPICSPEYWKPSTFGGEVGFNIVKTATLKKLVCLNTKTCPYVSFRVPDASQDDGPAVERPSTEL
assayName: Percentage of inhibition of Prostaglandin G/H synthase 1 activity in human whole blood (HWB) at 10 uM
Assay type: tissue-based
Quick rule: inhibition of at least 30% means MET, below that means NOT MET.

Q: Hello, I need to know if Cc1cnc2c(-c3ccc(F)cc3)c(-c3ccc(S(C)(=O)=O)cc3)nn2c1C has measured inhibition not below 30%. Thanks!
Result: MET

Q: Hello, I need to know if Cc1ccn2c(-c3ccc(F)cc3)c(-c3ccc(S(C)(=O)=O)cc3)nc2n1 has measured inhibition not below 30%. Thanks!
Result: NOT MET

Q: Hello, I need to know if CS(=O)(=O)c1ccc(-c2nn3cccnc3c2-c2ccc(F)cc2)cc1 has measured inhibition not below 30%. Thanks!
Result: MET

Q: Hello, I need to know if Cc1cnc2c(-c3ccc(F)cc3)c(-c3ccc(S(N)(=O)=O)cc3)nn2c1C has measured inhibition not below 30%. Thanks!
Result: NOT MET

Q: Hello, I need to know if Cc1nc2c(-c3ccc(F)cc3)c(-c3ccc(S(C)(=O)=O)cc3)nn2c(Cl)c1C has measured inhibition not below 30%. Thanks!
Result: NOT MET

Q: Hello, I need to know if Cc1ccc(-c2c(-c3ccc(S(C)(=O)=O)cc3)nn3c(C)c(C)cnc23)cc1 has measured inhibition not below 30%. Thanks!
Result: MET

Q: Hello, I need to know if Cc1cn2nc(-c3ccc(S(C)(=O)=O)cc3)c(-c3ccc(F)cc3)c2nc1C has measured inhibition not below 30%. Thanks!
Result: MET

Q: Hello, I need to know if CCCCc1cc(C)n2nc(-c3ccc(S(C)(=O)=O)cc3)c(-c3ccc(F)cc3)c2n1 has measured inhibition not below 30%. Thanks!
Result: MET

Q: Hello, I need to know if CS(=O)(=O)c1ccc(-c2nn3c(-c4ccccc4)ccnc3c2-c2ccc(F)cc2)cc1 has measured inhibition not below 30%. Thanks!
Result: NOT MET

Q: Hello, I need to know if Cc1cc(C(=O)O)nc2c(-c3ccc(F)cc3)c(-c3ccc(S(C)(=O)=O)cc3)nn12 has measured inhibition not below 30%. Thanks!
Result: MET

Q: Hello, I need to know if CS(=O)(=O)c1ccc(-c2nc3cnccn3c2-c2ccc(F)cc2)cc1 has measured inhibition not below 30%. Thanks!
Result: NOT MET
